Reference for the values: paper PMC9482650

- Target Desc: T1, SYNJ2BP, P57105
- T1 sequence (P57105 8-110, limits assumed, looked up): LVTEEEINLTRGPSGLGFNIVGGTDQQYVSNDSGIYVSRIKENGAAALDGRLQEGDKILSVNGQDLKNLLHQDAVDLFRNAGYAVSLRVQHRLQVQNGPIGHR
- Measurement Notes: holdup assay
- Parameters: key: below the threshold = too weak to quantify, mostly under pKd 3.1 to 4
- Details: plain residues with an end cap or a label only (N-terminal biotin on a linker: ado-ado)
Rule: pKd under 4 gives Not fulfilled, otherwise Fulfilled.

Asked: Does the binder TACCHSETVV [TGFA, P01135] have recorded pKd that is 4 or more?
Given back: Fulfilled

Asked: Does the binder SAKVRTVTSV [RASL11B, Q9BPW5] have recorded pKd that is 4 or more?
Given back: Fulfilled

Asked: Does the binder TKGPRGPTRV [SAPCD1, Q5SSQ6] have recorded pKd that is 4 or more?
Given back: Fulfilled

Asked: Does the binder PPYRHRNTVV [ERBB4, Q15303] have recorded pKd that is 4 or more?
Given back: Fulfilled

Asked: Does the binder PDGQCTVTEV [RNF146, Q9NTX7] have recorded pKd that is 4 or more?
Given back: Fulfilled

Asked: Does the binder YLEPVLSSEL [ATP2A2, P16615;P16615-3] have recorded pKd that is 4 or more?
Given back: Fulfilled

Asked: Does the binder NLSIEKETKL [ASNSD1, Q9NWL6] have recorded pKd that is 4 or more?
Given back: Not fulfilled

Asked: Does the binder VNKSKLLTDV [KCNA1, Q09470] have recorded pKd that is 4 or more?
Given back: Not fulfilled

Asked: Does the binder SAAKVLTSMC [GHRHR, Q02643] have recorded pKd that is 4 or more?
Given back: Not fulfilled

Asked: Does the binder HSGYRLNDYV [CLDN14, O95500] have recorded pKd that is 4 or more?
Given back: Not fulfilled

Asked: Does the binder QSARLWETSI [ADAM22, Q9P0K1] have recorded pKd that is 4 or more?
Given back: Fulfilled

Asked: Does the binder DDENIRTSDV [PLEKHA2, Q9HB19] have recorded pKd that is 4 or more?
Given back: Fulfilled

Asked: Does the binder FNSYSLTGYV [CLDN2, P57739] have recorded pKd that is 4 or more?
Given back: Not fulfilled

Asked: Does the binder AKPSRISTVV [IQSEC2, Q5JU85] have recorded pKd that is 4 or more?
Given back: Fulfilled
